# TARGET OR TEST SYSTEM: Msn1 (UniProt P22148)
# Sequence: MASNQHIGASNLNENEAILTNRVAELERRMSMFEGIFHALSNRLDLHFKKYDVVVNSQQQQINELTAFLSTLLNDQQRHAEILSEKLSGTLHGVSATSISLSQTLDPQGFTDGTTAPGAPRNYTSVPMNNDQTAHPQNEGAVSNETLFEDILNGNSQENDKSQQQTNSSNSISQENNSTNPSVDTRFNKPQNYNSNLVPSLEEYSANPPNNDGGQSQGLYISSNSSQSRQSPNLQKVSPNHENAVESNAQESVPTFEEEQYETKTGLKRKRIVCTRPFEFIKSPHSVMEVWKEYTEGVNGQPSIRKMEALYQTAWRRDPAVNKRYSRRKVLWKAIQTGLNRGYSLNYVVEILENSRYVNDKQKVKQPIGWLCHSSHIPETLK
# PROCEDURE TEXT: PBM E-score (8-mer binding enrichment) (E-score (-0.5 to 0.5)); higher = stronger / more preferred TF binding
# ASSAY SETUP: protein concentration: 200 nM; construct: GST-full length
The full ranking holds about 33,000 sequences; the median of “E-score (-0.5 to 0.5)” is about -0.013, and the highest 2% start at about 0.3. Only a selection was taken, and the highest values are over-represented in it overall.
VALUE TYPE: PBM E-score
Write the number on its own, no unit after it.

Record summary for "AGTGTCGG" : reported PBM E-score = 0.202

Briefly, PBM E-score measured for "GCAGACAC" : 0.203

So, "GAGACAAC" ? Its PBM E-score was 0.203

The value of PBM E-score measured for the sequence "CATTGTCG" turned out to be 0.21

The sequence "CTCCTAAC" showed PBM E-score equal to -0.278

# sequence "CCACGTGG" ; its PBM E-score = -0.276

***
The sequence listed as "CGTAGCAC" shows PBM E-score equal to -0.0105

---

# TARGET OR TEST SYSTEM: Msn1 (UniProt P22148)
# Sequence: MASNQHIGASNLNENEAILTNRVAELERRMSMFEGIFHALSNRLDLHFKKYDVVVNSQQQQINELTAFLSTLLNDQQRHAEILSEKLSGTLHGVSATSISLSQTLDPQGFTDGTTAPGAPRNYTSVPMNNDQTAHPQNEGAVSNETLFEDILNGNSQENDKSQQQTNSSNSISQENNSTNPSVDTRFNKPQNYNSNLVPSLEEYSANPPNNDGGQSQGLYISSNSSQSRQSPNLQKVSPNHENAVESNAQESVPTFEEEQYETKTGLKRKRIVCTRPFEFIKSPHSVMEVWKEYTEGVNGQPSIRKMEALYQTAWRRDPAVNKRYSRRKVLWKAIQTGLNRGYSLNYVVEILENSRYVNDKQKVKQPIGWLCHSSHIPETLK
# PROCEDURE TEXT: PBM E-score (8-mer binding enrichment) (E-score (-0.5 to 0.5)); higher = stronger / more preferred TF binding
# ASSAY SETUP: protein concentration: 200 nM; construct: GST-full length
Over roughly 33,000 sequences, “E-score (-0.5 to 0.5)” has its median near -0.013; the highest 2% begin near 0.3. What follows is part of a selection rich in the highest values, with near analogues and random picks from the rest.
Binary classification by PBM E-score, with 0.1 as an inclusive lower bound for true; all other cases are false.

Worked examples follow.
Enquiry: Is PBM E-score for "CATGTATA" at or above 0.1?
Return: true

Enquiry: Record "AATTGTCA" ; criterion: PBM E-score no lower than 0.1. Met?
Return: true

Enquiry: Answer whether PBM E-score of "GTCGACAC" is greater than or equal to 0.1.
Return: true

Enquiry: In plain terms: is recorded PBM E-score at least 0.1 for "ACTGTACT" ?
Return: false

Enquiry: Please indicate if the recorded PBM E-score for "ATGGACCA" meets or exceeds 0.1.
Return: true

Enquiry: Is the recorded value of PBM E-score equal to or greater than 0.1 for this sequence? "ATGGACAT"
Return: true

Enquiry: Item "GATTGTAC" with PBM E-score of 0.1 or above?
Return: false

Enquiry: Reported PBM E-score at or above 0.1? "CATTGTCC"
Return: true

Enquiry: Given "AATTGTTC" , state whether its PBM E-score is at least 0.1.
Return: true

Enquiry: Does the sequence "ATGGACAA" have recorded PBM E-score that is 0.1 or more?
Return: true

Kindly consider the entry below.
Enquiry: Does PBM E-score meet or surpass 0.1 for "CATTGTGC" ?
Return: false

---

Recorded PBM E-score by entry
# TARGET OR TEST SYSTEM: Msn1 (UniProt P22148)
# Sequence: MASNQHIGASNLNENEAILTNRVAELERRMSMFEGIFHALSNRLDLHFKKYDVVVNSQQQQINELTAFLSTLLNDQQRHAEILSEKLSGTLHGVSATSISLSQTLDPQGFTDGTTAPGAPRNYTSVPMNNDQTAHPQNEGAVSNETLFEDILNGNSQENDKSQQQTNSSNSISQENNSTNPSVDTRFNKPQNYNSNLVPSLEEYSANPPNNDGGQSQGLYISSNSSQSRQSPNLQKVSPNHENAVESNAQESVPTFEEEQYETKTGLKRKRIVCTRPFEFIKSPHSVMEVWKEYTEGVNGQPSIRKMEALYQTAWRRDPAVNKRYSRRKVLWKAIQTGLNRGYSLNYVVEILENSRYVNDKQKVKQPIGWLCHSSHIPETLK
# PROCEDURE TEXT: PBM E-score (8-mer binding enrichment) (E-score (-0.5 to 0.5)); higher = stronger / more preferred TF binding
# ASSAY SETUP: protein concentration: 200 nM; construct: GST-full length
The full ranking holds about 33,000 sequences; the median of “E-score (-0.5 to 0.5)” is about -0.013, and the highest 2% start at about 0.3. Shown is part of a subset that was picked to be rich in the highest values.
Note: the reply should be a number with no unit written.

Some sequences with known PBM E-score results, for comparison:
PBM E-score recorded for this sequence, "AGATTGCC" , is -0.0449

The recorded PBM E-score for "AACGCTAA" is -0.0499

For reference, reported PBM E-score for "CTCCAGTA" stands at 0.057

Kindly note the recorded PBM E-score for "CTTGGGCC" , which is -0.266

***
The sequence identified as "ATACATGA" registered its PBM E-score at 0.073

The sequence listed as "AATTAGCG" shows PBM E-score equal to 0.0486

Looking up "CCTTGTAC" , I see its PBM E-score listed as 0.183

Form: sequence = "CAGTGTCA" ; PBM E-score = -0.105

For reference, reported PBM E-score for "ACGTCCCG" stands at 0.0295

The reported value for "TTCCTAAA" in terms of PBM E-score is 0.0739

Data point: "CTGGGGTC" ; PBM E-score = -0.217

---

# TARGET OR TEST SYSTEM: Msn1 (UniProt P22148)
# Sequence: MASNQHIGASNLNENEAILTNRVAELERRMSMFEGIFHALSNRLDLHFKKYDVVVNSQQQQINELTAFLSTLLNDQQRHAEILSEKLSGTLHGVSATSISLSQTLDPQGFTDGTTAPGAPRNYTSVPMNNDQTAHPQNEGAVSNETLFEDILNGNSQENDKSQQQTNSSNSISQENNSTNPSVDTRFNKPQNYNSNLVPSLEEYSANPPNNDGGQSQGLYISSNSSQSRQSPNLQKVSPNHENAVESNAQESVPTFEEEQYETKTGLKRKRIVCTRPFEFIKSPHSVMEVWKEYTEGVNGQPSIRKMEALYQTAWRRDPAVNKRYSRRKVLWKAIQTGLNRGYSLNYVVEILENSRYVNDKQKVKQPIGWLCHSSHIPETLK
# PROCEDURE TEXT: PBM E-score (8-mer binding enrichment) (E-score (-0.5 to 0.5)); higher = stronger / more preferred TF binding
# ASSAY SETUP: protein concentration: 200 nM; construct: GST-full length
Whole data set: some 33,000 sequences, median “E-score (-0.5 to 0.5)” near -0.013, cut for the highest 2% near 0.3. The sample holds the highest values, similar sequences and a random draw of the others, so the mix is not that of the screen.
Collected PBM E-score values appear next to each entry.

Here are 2 sequences together with their reported answers.
The sequence listed as "ACAAAAGA" has a reported PBM E-score of 0.27

Briefly, PBM E-score measured for "ATGACACA" : 0.287

***
# PBM E-score (sequence: "CCAAAGTA" ) is -0.0844

Record "CTTGAGAC" , field PBM E-score: 0.0475

Field PBM E-score (entry "GGATCATA" ) reads -0.0918

Per the records, this sequence ( "GATGGCGC" ) has PBM E-score equal to -0.252

For reference, reported PBM E-score for "CTGACATA" stands at 0.269
